- target_desc: EGFR (murine) (UniProt P00533)
- Sequence (P00533 whole entry, looked up): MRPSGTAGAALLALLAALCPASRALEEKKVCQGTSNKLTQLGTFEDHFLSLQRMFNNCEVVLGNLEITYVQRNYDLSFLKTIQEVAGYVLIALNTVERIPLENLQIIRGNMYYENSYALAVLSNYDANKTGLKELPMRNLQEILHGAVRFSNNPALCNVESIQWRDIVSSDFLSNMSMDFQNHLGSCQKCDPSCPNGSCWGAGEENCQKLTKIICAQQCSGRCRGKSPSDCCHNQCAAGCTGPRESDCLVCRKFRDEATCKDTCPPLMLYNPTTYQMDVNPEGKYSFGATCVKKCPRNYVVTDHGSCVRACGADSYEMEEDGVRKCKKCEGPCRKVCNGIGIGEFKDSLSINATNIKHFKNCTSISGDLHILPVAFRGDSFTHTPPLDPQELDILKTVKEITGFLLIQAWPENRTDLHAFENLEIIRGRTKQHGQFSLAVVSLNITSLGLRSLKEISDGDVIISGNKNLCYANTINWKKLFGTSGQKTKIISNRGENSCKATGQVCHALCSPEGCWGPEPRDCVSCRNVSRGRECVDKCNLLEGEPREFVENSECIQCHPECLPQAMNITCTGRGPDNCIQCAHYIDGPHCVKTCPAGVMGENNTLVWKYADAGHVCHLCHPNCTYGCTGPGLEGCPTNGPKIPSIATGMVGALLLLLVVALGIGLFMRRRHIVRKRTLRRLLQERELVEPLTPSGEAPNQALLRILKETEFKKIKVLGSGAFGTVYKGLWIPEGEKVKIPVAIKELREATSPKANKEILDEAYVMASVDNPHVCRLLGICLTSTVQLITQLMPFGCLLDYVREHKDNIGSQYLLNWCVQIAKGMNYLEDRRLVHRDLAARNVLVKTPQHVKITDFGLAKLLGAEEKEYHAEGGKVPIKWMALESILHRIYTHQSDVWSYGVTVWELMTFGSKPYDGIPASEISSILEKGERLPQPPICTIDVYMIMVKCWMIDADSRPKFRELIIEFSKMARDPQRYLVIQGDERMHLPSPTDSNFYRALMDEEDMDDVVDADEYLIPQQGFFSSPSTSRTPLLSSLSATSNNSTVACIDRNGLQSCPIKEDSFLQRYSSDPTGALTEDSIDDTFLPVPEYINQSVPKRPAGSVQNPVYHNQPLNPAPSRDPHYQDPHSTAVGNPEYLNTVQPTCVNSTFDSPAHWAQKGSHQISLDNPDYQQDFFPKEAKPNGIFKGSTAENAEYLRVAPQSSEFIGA
- conditions_used: nih3t3/c7
pIC50: −log10 of the molar value.
Below is a list of entries, each paired with its recorded pIC50 value.
parameter_measured: pIC50

>>> observed_measurement("Cc1c(/C=C2\\C(=O)Nc3ncccc32)[nH]c2c1CCCC2")
4.42
>>> observed_measurement("COC(=O)CCc1c[nH]c(/C=C2\\C(=O)Nc3cc(OC)c(OC)cc32)c1C")
"< 4.30"
>>> observed_measurement("CCOC(=O)c1c(C)[nH]c(/C=C2\\C(=O)Nc3ccc(Br)cc32)c1C")
"< 4.60"
>>> observed_measurement("CCOC(=O)CCc1c(C(=O)OCC)[nH]c(/C=C2\\C(=O)Nc3ccccc32)c1CC(=O)OCC")
"< 5.00"
>>> observed_measurement("COC(=O)Cc1c(Cl)[nH]c(/C=C2\\C(=O)Nc3ccccc32)c1C(=O)OC")
"< 4.30"
>>> observed_measurement("O=C(O)CCc1c(/C=C2\\C(=O)Nc3ncccc32)[nH]c2c1CCCC2")
4.90
>>> observed_measurement("CCOC(=O)c1c(C)[nH]c(/C=C2\\C(=O)Nc3ccc(NC(=O)c4ccc(C(=O)OC)cc4)cc32)c1C")
"< 5.00"
>>> observed_measurement("Cc1cc(C)c(/C=C2\\C(=O)Nc3ncccc32)[nH]1")
"< 4.00"
>>> observed_measurement("COC(=O)CCc1c[nH]c(/C=C2\\C(=O)Nc3ccccc32)c1C")
"< 4.00"
>>> observed_measurement("O=C1Nc2ncccc2/C1=C/c1cc2c([nH]1)CCCC2")
4.52
>>> observed_measurement("CCOC(=O)c1[nH]c(/C=C2\\C(=O)Nc3ccccc32)c(C(C)=O)c1C")
"< 5.00"
>>> observed_measurement("CCc1c(/C=C2\\C(=O)Nc3ccccc32)[nH]c(C(=O)O)c1C")
"< 4.00"
>>> observed_measurement("Cc1c[nH]c(/C=C2\\C(=O)Nc3ccccc32)c1CC(=O)O")
"< 4.00"
>>> observed_measurement("Cc1[nH]c(/C=C2\\C(=O)Nc3ncccc32)c(C)c1CCC(=O)O")
"< 4.30"
>>> observed_measurement("CC(=O)c1[nH]c(/C=C2\\C(=O)Nc3ccccc32)c(C)c1C")
"< 4.00"
>>> observed_measurement("Cc1c(CCC(=O)O)c[nH]c1/C=C1\\C(=O)Nc2ncccc21")
"< 4.60"
